- method_notes: solvent given as SMILES
- condition_context: in ClCCl
metric_name: absorption maximum (nm)
Please state the figure in nm; there is no need to write the unit.

Example compounds with recorded absorption maximum:
> print(dat)
                                chem.smiles  value.measured
1  CCN(CC)c1ccc2n1[B-](F)(F)[N+]1=CC(/C=C/C(=O)OC(C)(C)C)=CC1=C2c1c(C)cc(C)cc1C             478
2  Cc1ccc(-c2ccc(C(=O)NC(C)(C)C)c3c2ccc2c4ccccc4c4ccccc4c23)cc1             341

Query: What value of absorption maximum has been recorded for this entry: c1ccc(-c2nc(-c3ccc(N4c5ccccc5Oc5ccccc54)cc3)nn2-c2ccc(N3c4ccccc4Oc4ccccc43)cc2)nc1
Response: 333

Query: Endpoint output: absorption maximum of C[Si]1(C)O[Si](C)(C)c2cc3c(-c4ccccc4)c4cc(Cl)ccc4nc3cc21 . Value?
Response: 376

Query: May I ask what absorption maximum has been recorded for CN(C)c1ccc(/C=C/c2nc(/C=C/c3ccc(N(c4ccccc4)c4ccccc4)cc3)cc(/C=C/c3ccc(N(c4ccccc4)c4ccccc4)cc3)n2)cc1 ?
Response: 409

The reported numbers originate from the Deep4Chem optical property database.
